The measured values listed here are drawn from patent US6525059B1.

# tgt: human GST-p38 kinase alpha (Homo sapiens, UniProt Q16539)
# Construct: The coding region of the human p38a cDNA was obtained by PCR-amplification from RNA isolated from the human monocyte cell line THP.1; made in house; host or cells: E. coli DH10B
# Sequence (Q16539 whole entry): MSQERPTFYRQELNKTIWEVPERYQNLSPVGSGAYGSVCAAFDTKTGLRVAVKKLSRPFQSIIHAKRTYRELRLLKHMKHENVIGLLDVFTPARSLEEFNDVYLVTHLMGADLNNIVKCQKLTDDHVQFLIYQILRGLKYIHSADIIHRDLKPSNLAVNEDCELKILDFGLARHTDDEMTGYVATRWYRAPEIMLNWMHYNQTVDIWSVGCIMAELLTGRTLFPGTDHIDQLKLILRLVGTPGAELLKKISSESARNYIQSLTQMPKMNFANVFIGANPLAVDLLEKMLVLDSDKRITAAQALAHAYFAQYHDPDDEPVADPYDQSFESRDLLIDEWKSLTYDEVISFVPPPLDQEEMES
# test-protocol: p38 kinase in vitro assay, second format, phosphorylation of EGFRP with 33P-ATP
# Format: biochemical
# recorded-conditions: Table 10, 10% DMSO; @ 1.0 hour; read-out: p38α Kinase Assay IC50
A collection of compounds and their measured IC50
endpoint: IC50 (µM)

>  <smiles-code>
CSc1[nH]nc(-c2ccc(Cl)cc2)c1-c1ccncc1

>  <endpoint>
IC50

>  <reported-result>
0.35

$$$$
>  <smiles-code>
CC(C)(C)c1ccc(C(=O)C(=C2SCS2)c2ccncc2)cc1

>  <endpoint>
IC50

>  <reported-result>
45.6

$$$$
>  <smiles-code>
CN1CCC(Sc2[nH]nc(-c3ccc(Cl)cc3)c2-c2ccncc2)CC1

>  <endpoint>
IC50

>  <reported-result>
0.3

$$$$
>  <smiles-code>
COc1ccc(CS(=O)(=O)c2[nH]nc(-c3ccc(F)cc3)c2-c2ccncc2)cc1

>  <endpoint>
IC50

>  <reported-result>
21.4

$$$$
